- tested-system: T1, recombinant human full-length TDP-43 (TAR DNA-binding protein 43), soluble (human, UniProt Q13148 1-414)
- T1 construct: Used on Luminex beads, coated on ELISA plates, and immobilized or injected in SPR; also called FL TDP-43; TDP-43 protein
- T1 sequence (Q13148 whole entry): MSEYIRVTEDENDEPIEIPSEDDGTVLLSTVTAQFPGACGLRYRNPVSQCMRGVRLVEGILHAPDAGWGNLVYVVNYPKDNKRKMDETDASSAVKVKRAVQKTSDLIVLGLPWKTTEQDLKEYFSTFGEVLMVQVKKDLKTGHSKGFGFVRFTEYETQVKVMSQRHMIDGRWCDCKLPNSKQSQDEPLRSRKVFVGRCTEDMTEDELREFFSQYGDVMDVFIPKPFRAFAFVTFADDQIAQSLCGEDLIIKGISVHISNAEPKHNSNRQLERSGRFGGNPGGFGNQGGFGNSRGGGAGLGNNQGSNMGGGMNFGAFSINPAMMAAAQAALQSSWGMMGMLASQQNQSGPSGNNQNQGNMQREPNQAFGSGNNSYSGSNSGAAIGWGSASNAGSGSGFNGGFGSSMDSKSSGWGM
- experimental-details: SPR 8K, immobilized soluble TDP-43
Entries and their measured pKd follow.
In plain terms, pKd is the concentration in mol/L turned into minus its base-10 logarithm.

[[record]]
binder = "hACI-7069-633B12-Ab1_H19L14 (IgG4) (antibody, V domains shown) VH: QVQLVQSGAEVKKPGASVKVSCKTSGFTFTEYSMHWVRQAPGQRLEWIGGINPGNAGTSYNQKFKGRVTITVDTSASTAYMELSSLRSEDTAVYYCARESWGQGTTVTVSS VL: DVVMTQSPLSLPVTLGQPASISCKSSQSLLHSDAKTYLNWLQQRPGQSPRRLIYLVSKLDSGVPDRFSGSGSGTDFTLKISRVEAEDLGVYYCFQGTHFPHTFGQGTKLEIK"
numeric_readout = 9.00

[[record]]
binder = "hACI-7069-633B12-Ab1_H16L14 (IgG4) (antibody, V domains shown) VH: EVQLVQSGAEVKKPGASVKVSCKASGFTFTEYSMHWVRQAPGQRLEWMGGINPGNAGTSYNQKFKGRVTITVDTSASTAYMELSSLRSEDTAVYYCARESWGQGTTVTVSS VL: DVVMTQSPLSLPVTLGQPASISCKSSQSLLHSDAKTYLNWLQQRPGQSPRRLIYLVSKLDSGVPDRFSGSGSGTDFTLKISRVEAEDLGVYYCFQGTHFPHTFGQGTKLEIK"
numeric_readout = 9.22


Reported pKd of hACI-7069-633B12-Ab1_H19L18 (IgG4) (antibody, V domains shown) VH: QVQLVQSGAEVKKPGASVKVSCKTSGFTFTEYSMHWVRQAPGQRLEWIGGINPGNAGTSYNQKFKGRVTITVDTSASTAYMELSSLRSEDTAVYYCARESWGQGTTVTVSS VL: DVVMTQSPLSLPVTLGQPASISCKSSQSLLHSDAKTYLNWLQQRPGQSPRRLIYLVSKLDSRVPDRFSGSGSGTDFTLKISRVEAEDLGVYYCFQGTHFPHTFGQGTKLEIK : 9.37
